test: Half life in dog at 1 mg/kg, po or 0.4 mg/kg, iv administered in discrete format; assay type: ADME, organism-based, Canis lupus familiaris; conditions: in vivo
EXPERIMENTAL ENDPOINT: half-life (h)
Response body: numeric value in h, unit text excluded.

IN: Query half-life for NC[C@H]1CC[C@H](C(=O)N[C@@H](Cc2ccccc2)c2nc(-c3ccc4c(N)n[nH]c4c3)c(Cl)[nH]2)CC1
OUT: 1.88

###

Quick list: half-life per entry.
assay: Half life in dog at 0.5 mg/kg, po or 0.4 mg/kg, iv administered in cassette format; assay type: ADME, organism-based, Canis lupus familiaris; conditions: in vivo
Quick note: give the figure in h, leave out the unit.

Take a look at these entries with their results.
* C[C@H]1CC[C@H](C(=O)N[C@@H](Cc2ccccc2)c2nc(-c3ccc4c(N)n[nH]c4c3)c(Cl)[nH]2)CC1 | 1.5
* COC(=O)Nc1ccc(-c2c[nH]c([C@H](Cc3ccccc3)NC(=O)/C=C/c3cc(Cl)ccc3-n3cnnn3)n2)cc1 | 2.4

IN: Fill in reported half-life for this entry: COc1cc(F)c(C(=O)N[C@@H](Cc2ccccc2)c2nc(-c3ccc4c(N)n[nH]c4c3)c(Cl)[nH]2)c(F)c1
OUT: 1.2

IN: Query half-life for COC(=O)Nc1ccc(-c2nc([C@H](Cc3ccccc3)NC(=O)NCc3cc(Cl)ccc3-n3cnnn3)[nH]c2Cl)cc1
OUT: 2.8

IN: Provide one value: measured half-life of Nc1n[nH]c2cc(-c3nc([C@H](Cc4ccccc4)NC(=O)NCc4cc(Cl)ccc4-n4cnnn4)[nH]c3Cl)ccc12
OUT: 2.1
